molecular target: histidine-tagged recombinant human TrkA, cytoplasmic domain (Homo sapiens (Human), UniProt P04629); assay: TrkA ELISA Assay; conditions: 2.5 nM TrkA, 500 μM ATP, 25 minutes; read-out: TrkA Elisa Enzyme IC50
Sequence (P04629 440-796): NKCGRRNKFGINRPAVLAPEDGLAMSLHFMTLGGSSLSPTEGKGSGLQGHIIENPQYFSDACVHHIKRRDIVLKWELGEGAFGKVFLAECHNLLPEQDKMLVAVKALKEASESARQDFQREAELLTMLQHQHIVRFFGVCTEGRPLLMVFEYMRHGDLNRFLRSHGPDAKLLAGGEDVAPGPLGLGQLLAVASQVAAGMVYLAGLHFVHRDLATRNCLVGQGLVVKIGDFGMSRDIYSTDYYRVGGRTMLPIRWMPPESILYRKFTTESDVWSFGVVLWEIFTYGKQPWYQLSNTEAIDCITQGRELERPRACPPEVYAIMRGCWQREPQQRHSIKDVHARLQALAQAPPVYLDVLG
pIC50: −log10 of the molar value.
Could you label it true (1) if measured pIC50 is 8 or higher, and false (0) otherwise?

Req: I'd appreciate it if you could say whether O=C(Nc1cnn2ccc(N3CCC[C@@H]3c3cccc(F)c3)nc12)c1ccncc1 has pIC50 at least equal to 8.
Resp: false (0)

Req: Confirm if pIC50 reported for the molecule CC(C)Nc1nc(C(=O)Nc2cnn3ccc(N4CCC[C@@H]4c4cc(F)ccc4F)nc23)cs1 is 8 or above.
Resp: true (1)

Req: Please tell me: is the molecule O=C(Nc1cnn2ccc(N3CCC[C@@H]3c3cc(F)ccc3C(F)(F)F)nc12)N1CC[C@@H](O)C1 at or over 8 in terms of pIC50?
Resp: true (1)

Req: Given the entry COC1CN(C(=O)Nc2cnn3ccc(N4CCC[C@@H]4c4cc(F)ccc4F)nc23)C1 , answer whether its pIC50 meets or surpasses 8.
Resp: false (0)

Req: Would you say O=C(Nc1cnn2ccc(N3CCC[C@@H]3c3cncc(F)c3)nc12)N1CC[C@H](O)C1 shows pIC50 at minimum 8?
Resp: false (0)

Req: Reported pIC50 at or above 8? O=C(Nc1ccc(F)cc1)Nc1cnn2ccc(N3CCC[C@@H]3c3cc(F)ccc3F)nc12
Resp: true (1)

Req: Check the entry O=C(Nc1cnn2ccc(N3CCC[C@@H]3c3cc(F)ccc3F)nc12)c1ccc(Cl)cn1 : does pIC50 equal or exceed 8?
Resp: true (1)

Req: # check: pIC50 of Cn1ccc(C(=O)Nc2cnn3ccc(N4CCC[C@@H]4c4cccc(F)c4)nc23)cc1=O is greater than or equal to 8
Resp: false (0)

Req: Does the reported pIC50 for CCN1CCN(C(=O)Nc2cnn3ccc(N4CCC[C@@H]4c4cc(F)ccc4F)nc23)CC1 fall at or above the 8 mark?
Resp: false (0)

Req: Tell me whether pIC50 is at least 8 here: O=C(Nc1cnn2ccc(N3CCC[C@@H]3c3cc(F)ccc3F)nc12)c1ccccn1
Resp: true (1)

Req: For this molecule, is measured pIC50 8 or higher? C[C@]1(C(=O)Nc2cnn3ccc(N4CCC[C@@H]4c4cc(F)ccc4F)nc23)CCCN1
Resp: false (0)

Req: Could you please find out whether Cc1cnccc1C(=O)Nc1cnn2ccc(N3CCC[C@@H]3c3cccc(F)c3)nc12 has pIC50 that meets 8 or exceeds it?
Resp: false (0)

Req: Exam item: decide whether the reported pIC50 for Cc1cnc(C(=O)Nc2cnn3ccc(N4CCC[C@@H]4c4cc(F)ccc4F)nc23)cn1 is at least 8.
Resp: true (1)

Req: Please indicate if the recorded pIC50 for O=C(Nc1cnn2ccc(N3CCC[C@@H]3c3cc(F)ccc3F)nc12)N1CCOCC1 meets or exceeds 8.
Resp: false (0)

Req: For this molecule, is measured pIC50 8 or higher? O=C(Nc1cnn2ccc(N3CCC[C@@H]3c3cc(F)ccc3C(F)F)nc12)N1CCC[C@@H](O)C1
Resp: false (0)

Req: Is the recorded value of pIC50 equal to or greater than 8 for this molecule? C[C@H]1CN(C(=O)Nc2cnn3ccc(N4CCC[C@@H]4c4cc(F)ccc4Cl)nc23)CCN1C(=O)OC(C)(C)C
Resp: false (0)

Req: Check if pIC50 >= 8 (inclusive). Item: O=C(Nc1ccccc1)Nc1cnn2ccc(N3CCC[C@@H]3c3cc(F)ccc3F)nc12
Resp: true (1)

Req: Check if pIC50 >= 8 (inclusive). Item: CC(C)N1CCN(C(=O)Nc2cnn3ccc(N4CCC[C@@H]4c4cc(F)ccc4F)nc23)CC1
Resp: false (0)

Req: Check if pIC50 >= 8 (inclusive). Item: CNC(C)(C)C(=O)Nc1cnn2ccc(N3CCC[C@@H]3c3cc(F)ccc3F)nc12
Resp: false (0)

Req: Item C[C@H]1CN(C(=O)Nc2cnn3ccc(N4CCC[C@@H]4c4cc(F)ccc4F)nc23)CCN1C(=O)OC(C)(C)C with pIC50 of 8 or above?
Resp: false (0)

Req: Exam item: decide whether the reported pIC50 for COC(=O)C1(C(=O)Nc2cnn3ccc(N4CCC[C@@H]4c4cc(F)ccc4F)nc23)CC1 is at least 8.
Resp: true (1)

Req: Say whether O=C(Nc1cnn2ccc(N3CCC[C@@H]3c3cc(F)ccc3F)nc12)N1C[C@@H]2C[C@H]1CO2 shows pIC50 of 8 or more.
Resp: false (0)
